# condition-notes: in n-propanol, 313.15 K
measurement-label: solubility (mole fraction)
Reply with just the number.

Sample C#C[C@]1(O)CC[C@H]2[C@@H]3CCC4=CC(=O)CC[C@@H]4[C@H]3C(=C)C[C@@]21CC — what was its solubility (mole fraction)?
0.0132

====

# condition-notes: in isopropanol, 298.15 K
measurement-label: solubility (mole fraction)
Reply with just the number.

Sample C#C[C@]1(O)CC[C@H]2[C@@H]3CCC4=CC(=O)CC[C@@H]4[C@H]3C(=C)C[C@@]21CC — what was its solubility (mole fraction)?
0.0106

====

# condition-notes: in DMF, 278.15 K
measurement-label: solubility (mole fraction)
Reply with just the number.

Sample C#C[C@]1(O)CC[C@H]2[C@@H]3CCC4=CC(=O)CC[C@@H]4[C@H]3C(=C)C[C@@]21CC — what was its solubility (mole fraction)?
0.0797
